Source listed as paper PMC9352680.

- System Name: T1, PUF4 RNA-binding domain (Saccharomyces cerevisiae, UniProt P25339 537-888)
- T1 sequence: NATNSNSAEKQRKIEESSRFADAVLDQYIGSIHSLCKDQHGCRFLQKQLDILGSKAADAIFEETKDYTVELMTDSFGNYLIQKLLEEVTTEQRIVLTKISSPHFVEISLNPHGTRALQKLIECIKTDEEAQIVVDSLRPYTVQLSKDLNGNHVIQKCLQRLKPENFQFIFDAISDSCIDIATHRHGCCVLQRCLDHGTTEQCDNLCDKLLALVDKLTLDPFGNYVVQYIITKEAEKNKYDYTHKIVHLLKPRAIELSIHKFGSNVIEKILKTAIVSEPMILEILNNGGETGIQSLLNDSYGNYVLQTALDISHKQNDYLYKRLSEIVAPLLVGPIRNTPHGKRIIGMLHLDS
- Test Method Notes: Mg; RNA-MaP; 20 mM Na-HEPES pH 7.4, 30 mM KOAc, 0.75 mM MgCl2, 0.1% Tween-20, 5% glycerol, 0.1 mg/mL BSA, 2 mM DTT; 25 C; 0.0125-409.6 nM protein
- Condition Info: tags: N-His6-TEV cleaved; C-SNAP kept, Cy3B-labelled; label: tethered on chip by stalled RNA polymerase
Kd values for the binders below.

Binder: Ie_S2_P5E.1_K5.1_C5.1_H5.1_[+2CCTCT]_A5.1_F5.1_T5.1 (ssRNA) RNA: UUUGAUUAAUAUGAUAUCGUUCUUUCUUGCCUCUUAUUAUUAUUCUUUCUCGAUAUCAUAUUAAUCUUU
Qualifier: >
Kd (nM): 2300

Binder: Id_ii_S2_P3E.3_K3.2_C3.2_[C-2A]_[T-1G]_H3.2_A3.1_F3.1_T3.2_[A10T] (ssRNA) RNA: UUUGAUUAAUAUGAUAUCGUUCUUUCUAGUAUAUAUAUUUUCUUUCUCGAUAUCAUAUUAAUCUUU
Qualifier: =
Kd (nM): 407

Binder: Id_ii_S2_P5E.2_K5.1_C5.2_[C-2A]_H5.1_A5.1_F5.1_T5.2_[A12C] (ssRNA) RNA: UUUGAUUAAUAUGAUAUCGUUCUUUCUAUUGUAUUAUUAUCUUCUUUCUCGAUAUCAUAUUAAUCUUU
Qualifier: =
Kd (nM): 3.2
